Origin of the recorded values: ChEMBL document CHEMBL1158570

- Tested on: Mycobacterium tuberculosis
- assay: Antimycobacterial activity against Mycobacterium tuberculosis H37Rv after 2 weeks
- Assay type: functional
- condition-summary: 336 h
Known MIC of a selection of compounds
recorded-endpoint: MIC (µg/mL)

COc1cc(/C=C/C(=O)NCCc2ccc(O)cc2)ccc1O [N-TRANS-FERULOYL TYRAMINE]; 60
CC[C@@H](CO)NCCN[C@@H](CC)CO; 6.25
CCCCCCCCCCCCC/C=C1/C(=O)O[C@](C)(OC)[C@@H]1O [LITSEAKOLIDE L]; 25
COc1cc(/C=C/C(=O)NCCc2ccc(O)c(OC)c2)ccc1O; 1.6
COc1cc(OC)c(C[C@@H](O)Cc2ccc(OC)c(OC)c2)c(OC)c1; 100
